# method.summary: Tigecycline plasma PK and % F after intraduodenal (ID) injection in anesthetized rats
# Type: in vivo, Sprague-Dawley Rats
# condition.label: female, Sprague-Dawley, rat, plasma, 9 mg/kg, pH 3.5, ID, 100 mM CA (pH 3.5), 26 mM LLC, 9.0 mg/kg (RA853); read-out: Cmax, Mean
quantity.name: Cmax (ng/mL)
The answer is to be given in ng/mL; state only the numeric part.

INPUT: Report Cmax for `CN(C)c1cc(NC(=O)CNC(C)(C)C)c(O)c2c1C[C@H]1C[C@H]3[C@H](N(C)C)C(O)=C(C(N)=O)C(=O)[C@@]3(O)C(O)=C1C2=O` please.
OUTPUT: 2060
